- Assay System: p38 MAPK/MK2 (Homo sapiens)
- Construct: Abcam (MK2) 04-152; 79910
- Method Summary: In vitro activity assay of p38 MAPK/MK2 (Z-LYTE kinase assay kit)
- Test Settings: active p38α, inactive MK2, Ser/Thr 4; 1-hour reaction at 20° C.
Measured Quantity: IC50 (nM)

INSERT INTO results (compound, assay_system, assay_result) VALUES
  ('COc1cnc(-c2cccc(C(C)(C)O)c2F)cc1-n1c(C)cc(OCc2ncc(F)cc2F)c(Cl)c1=O', 'p38 MAPK/MK2 (Homo sapiens)', 3.49);

P: Cc1cnc(-c2ccc(Cl)c([C@@](C)(O)CO)c2)c(F)c1-n1c(C)cc(OCc2ncc(F)cc2F)c(Cl)c1=O
Q: CNC(=O)C(C)(O)c1cc(-c2ncc(C)c(-n3c(C)cc(OCc4ncc(F)cc4F)c(Cl)c3=O)c2F)ccc1F (stereo not shown) [Compound 124-P2]
R: Cc1cnc(-c2cccc(C(=O)N(C)C)c2)cc1-n1c(C)cc(OCc2ncc(F)cc2F)c(Cl)c1=O
Q. Rank entries according to their IC50, from the largest number down. Form entry: ranked labels (order as requested).
A. R, P, Q

====

- Assay System: p38 MAPK/MK2 (Homo sapiens)
- Construct: Abcam (MK2) 04-152; 79910
- Method Summary: In vitro activity assay of p38 MAPK/MK2 (Z-LYTE kinase assay kit)
- Test Settings: active p38α, inactive MK2, Ser/Thr 4; 1-hour reaction at 20° C.
Measured Quantity: IC50 (nM)

Example compounds with recorded IC50:
INSERT INTO assay_data (compound, assay_result) VALUES
  ('Cc1cnc(-c2ccc(F)c([C@](C)(O)CO)c2F)cc1-n1c(C)cc(OCc2ncc(F)cc2F)c(Cl)c1=O (single isomer, unassigned) [Compound 65-P2]', 0.4),
  ('Cc1cnc(-c2cccc(C3(O)CC3)c2F)cc1-n1c(C)cc(OCc2ncc(F)cc2F)c(Cl)c1=O [Compound 135]', 13),
  ('Cc1cnc(-c2ccc(F)c(C(C)(O)C(N)=O)c2)c(F)c1-n1c(C)cc(OCc2ncc(F)cc2F)c(Cl)c1=O (stereo not shown) [Compound 128-P1]', 0.15),
  ('CNCC(C)(O)c1cccc(-c2cc(-n3c(C)cc(OCc4ncc(F)cc4F)c(Cl)c3=O)c(C)cn2)c1F (stereo not shown) [Compound 150]', 8.59),
  ('Cc1cnc(-c2ccc(F)c(C(C)(C)O)c2)cc1-n1c(C)cc(OCc2ncc(F)cc2F)c(Cl)c1=O [Compound 88-P2]', 2.11);

I: Cc1cnc(-c2cccc([C@](C)(O)CO)c2Cl)c(F)c1-n1c(C)cc(OCc2ncc(F)cc2F)c(Cl)c1=O [Compound 62-P1]
II: CNCC(C)(O)c1cc(-c2ncc(C)c(-n3c(C)cc(OCc4ncc(F)cc4F)c(Cl)c3=O)c2F)ccc1F (stereo not shown) [Compound 139]
Q. Param metric = IC50; output whichever of I , II has the minimum value. Mark your selection by writing its label.
A. I

====

- Assay System: p38 MAPK/MK2 (Homo sapiens, UniProt Q16539)
- Construct: Abcam (MK2) 04-152; 79910
- Sequence (Q16539 whole entry): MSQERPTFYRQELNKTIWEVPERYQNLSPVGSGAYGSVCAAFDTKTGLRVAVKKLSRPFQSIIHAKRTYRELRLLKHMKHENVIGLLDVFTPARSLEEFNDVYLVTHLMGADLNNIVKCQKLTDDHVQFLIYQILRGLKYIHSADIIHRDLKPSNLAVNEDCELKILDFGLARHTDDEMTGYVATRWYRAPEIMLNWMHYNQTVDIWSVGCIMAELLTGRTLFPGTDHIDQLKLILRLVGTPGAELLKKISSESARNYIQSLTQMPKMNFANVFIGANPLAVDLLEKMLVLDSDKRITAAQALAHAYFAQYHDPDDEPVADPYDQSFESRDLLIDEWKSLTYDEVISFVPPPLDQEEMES
- Sequence (P49137 whole entry partner): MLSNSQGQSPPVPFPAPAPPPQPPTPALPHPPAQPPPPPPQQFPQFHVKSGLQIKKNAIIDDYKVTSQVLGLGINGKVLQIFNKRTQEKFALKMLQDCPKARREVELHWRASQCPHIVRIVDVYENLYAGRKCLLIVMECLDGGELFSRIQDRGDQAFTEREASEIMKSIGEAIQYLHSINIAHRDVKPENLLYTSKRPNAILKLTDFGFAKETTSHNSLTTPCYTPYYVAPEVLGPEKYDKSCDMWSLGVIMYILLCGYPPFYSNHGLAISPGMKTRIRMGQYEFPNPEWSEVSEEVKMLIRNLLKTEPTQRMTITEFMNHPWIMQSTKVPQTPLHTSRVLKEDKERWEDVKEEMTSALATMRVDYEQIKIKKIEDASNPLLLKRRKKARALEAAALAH
- Method Summary: In vitro activity assay of p38 MAPK/MK2 (Z-LYTE kinase assay kit)
- Test Settings: active p38α, inactive MK2, Ser/Thr 4; 1-hour reaction at 20° C.
- Procedure: The inhibitory effect of the compound on p38 MAPK/MK2 was evaluated using the Z-LYTE kinase assay kit (Thermo, PV3177). The test compound was dissolved in DMSO to obtain a 10 mM stock solution and stored at −20° C. for future use. […] The reaction was terminated by adding 5 μL of stop buffer, and the plate was read using a microplate reader (Ex. 400 nm, Em. 445 nm; Ex. 400 nm, Em. 520 nm). […]
Measured Quantity: IC50 (nM)

INSERT INTO results (compound, assay_result) VALUES
  ('Cc1cnc(-c2ccc(F)c(C(C)(C)O)c2F)cc1-n1c(C)cc(OCc2ncc(F)cc2F)c(Cl)c1=O [Compound 111-P2]', 0.22),
  ('Cc1cnc(-c2ccc(F)c([C@@](C)(O)CO)c2)c(F)c1-n1c(C)cc(OCc2ncc(F)cc2F)c(Cl)c1=O (single isomer, unassigned) [Compound 51-P1]', 1.83),
  ('CNC(=O)C(C)(O)c1c(F)ccc(-c2cc(-n3c(C)cc(OCc4ncc(F)cc4F)c(Cl)c3=O)c(C)cn2)c1F (single isomer, unassigned) [Compound 116-P4]', 0.14),
  ('COc1cnc(-c2cccc([C@@](C)(O)CO)c2F)cc1-n1c(C)cc(OCc2ncc(F)cc2F)c(Cl)c1=O', 20.6),
  ('Cc1cnc(-c2ccc3c(c2)C(C)(O)C(=O)N3)c(F)c1-n1c(C)cc(OCc2ncc(F)cc2F)c(Cl)c1=O (single isomer, unassigned) [Compound 115-P1]', 0.14);

1: Cc1cnc(-c2cccc([C@@](C)(O)CO)c2Cl)c(F)c1-n1c(C)cc(OCc2ncc(F)cc2F)c(Cl)c1=O
2: Cc1cnc(-c2cccc([C@@H](O)CO)c2F)cc1-n1c(C)cc(OCc2ncc(F)cc2F)c(Cl)c1=O [Compound 151-P1]
Q. Param metric = IC50; output whichever of 1 , 2 has the minimum value. Mark your selection by writing its label.
A. 1
(1: 0.058 nM, 2: 1.56 nM)

P: Cc1cnc(-c2ccc(F)c([C@@](C)(O)CO)c2F)cc1-n1c(C)cc(OCc2ncc(F)cc2F)c(Cl)c1=O (single isomer, unassigned) [Compound 65-2]
Q: Cc1cnc(-c2ccc(F)c(C(C)(O)C(=O)O)c2)c(F)c1-n1c(C)cc(OCc2ncc(F)cc2F)c(Cl)c1=O (stereo not drawn)
Q. Param metric = IC50; output whichever of P , Q has the minimum value. Mark your selection by writing its label.
A. Q
(Q: 1.21 nM, P: 1.86 nM)

====

- Method Summary: Pharmacokinetic evaluation in mice
- Assay type: in vivo
- Test Settings: mouse, plasma, po, intragastric administration group 5 mg/kg, read-out: Half-life T1/2 (converted)
- Excerpt: […]
Measured Quantity: half-life (h)

INSERT INTO measurements (compound, measured_quantity, assay_result) VALUES
  ('CNC(=O)c1cccc(-c2ncc(C)c(-n3c(C)cc(OCc4ncc(F)cc4F)c(Cl)c3=O)c2F)c1 [Compound 31-P1]', 'half-life', 3.24);

1: Cc1cnc(-c2cccc(S(C)(=O)=O)c2)c(F)c1-n1c(C)cc(OCc2ncc(F)cc2F)c(Cl)c1=O [Compound 33-P1]
2: Cc1cnc(-c2cccc(C(N)=O)c2)c(F)c1-n1c(C)cc(OCc2ncc(F)cc2F)c(Cl)c1=O [Compound 30-P1]
Q. Param metric = half-life; output whichever of 1 , 2 has the minimum value. Mark your selection by writing its label.
A. 1
(1: 1.99 h, 2: 3.31 h)
